# METHOD: Cytotoxicity against PDGF-BB-induced rat VSMC at 50 uM
QUANTITY_KIND: Activity

Challenge: Which value of Activity has been reported for CO[C@H]1[C@@H]2C[C@@H]3OC[C@](O)([C@H]2[C@H](O[C@@H]2O[C@H](CO)[C@@H](O)[C@H](O)[C@H]2O)O3)[C@@H]1O [METHYLSCUTELLOSIDE] in the records?
Response given: Non-toxic

Challenge: Which value of Activity has been reported for CO[C@@H]1C=C2[C@@H]3CC(C)(C)CC[C@]3(CO)CC[C@@]2(C)[C@]2(C)CC[C@H]3[C@](C)(CO)[C@@H](O[C@@H]4O[C@H](C)[C@H](O)[C@H](O[C@@H]5O[C@H](CO)[C@@H](O[C@@H]6O[C@@H](C)[C@H](O)[C@@H](O)[C@H]6O)[C@H](O)[C@H]5O)[C@H]4O[C@@H]4O[C@H](CO)[C@@H](O)[C@H](O)[C@H]4O)CC[C@]3(C)[C@@H]12 [MIMENGOSIDE B] in the records?
Response given: Toxic

Challenge: Which value of Activity has been reported for CO[C@@H]1C=C2[C@@H]3CC(C)(C)CC[C@]3(OC)[C@@H](O)C[C@@]2(C)[C@]2(C)CC[C@H]3[C@](C)(CO)[C@@H](O[C@@H]4O[C@H](C)[C@H](O)[C@H](O[C@@H]5O[C@H](CO)[C@@H](O)[C@H](O)[C@H]5O)[C@H]4O[C@@H]4O[C@H](CO)[C@@H](O)[C@H](O)[C@H]4O)CC[C@]3(C)[C@@H]12 in the records?
Response given: Toxic

Challenge: Which value of Activity has been reported for COc1ccc(/C=C/C(=O)O[C@@H]2[C@@H](OC(C)=O)[C@@H](O)[C@H](O[C@H]3[C@@H]4C=CO[C@@H](O[C@@H]5O[C@H](CO)[C@@H](O)[C@H](O)[C@H]5O)[C@@H]4[C@@]4(CO)O[C@@H]34)O[C@H]2C)cc1 [BUDDLEJOSIDE A4] in the records?
Response given: Non-toxic

Challenge: Which value of Activity has been reported for C=C[C@](C)(O)CC/C=C(\C)CO[C@@H]1O[C@H](CO)[C@@H](O)[C@H](O)[C@H]1O in the records?
Response given: Non-toxic

Challenge: Which value of Activity has been reported for CO[C@H]1[C@@H]2C=CO[C@@H](O[C@@H]3O[C@H](CO)[C@@H](O)[C@H](O)[C@H]3O)[C@@H]2[C@@]2(CO)O[C@@H]12 in the records?
Response given: Non-toxic

Challenge: Which value of Activity has been reported for C[C@@H]1O[C@@H](O[C@H]2[C@H](O)[C@@H](O)[C@H](O[C@H]3[C@@H](O)[C@@H](C)O[C@@H](O[C@H]4CC[C@@]5(C)[C@@H](CC[C@]6(C)[C@@H]5C=C[C@]57OC[C@@]8(CCC(C)(C)C[C@H]85)[C@@H](O)C[C@]76C)[C@]4(C)CO)[C@@H]3O[C@@H]3O[C@H](CO)[C@@H](O)[C@H](O)[C@H]3O)O[C@@H]2CO)[C@H](O)[C@H](O)[C@H]1O in the records?
Response given: Toxic

Challenge: Which value of Activity has been reported for C[C@@H]1O[C@@H](OC[C@H]2O[C@@H](Oc3cc(O)c4c(=O)cc(-c5ccc(O)cc5)oc4c3)[C@H](O)[C@@H](O)[C@@H]2O)[C@H](O)[C@H](O)[C@H]1O in the records?
Response given: Non-toxic

Challenge: Which value of Activity has been reported for COc1ccc(-c2cc(=O)c3c(O)cc(O[C@@H]4O[C@H](CO[C@@H]5O[C@@H](C)[C@H](O)[C@@H](O)[C@H]5O)[C@@H](O)[C@H](O)[C@H]4O)cc3o2)cc1 in the records?
Response given: Non-toxic

Challenge: Which value of Activity has been reported for CO[C@@H]1C=C2[C@@H]3CC(C)(C)CC[C@]3(CO)[C@@H](O)C[C@@]2(C)[C@]2(C)CC[C@H]3[C@](C)(CO)[C@@H](O[C@@H]4O[C@H](C)[C@H](O)[C@H](O[C@@H]5O[C@H](CO)[C@@H](O[C@@H]6O[C@@H](C)[C@H](O)[C@@H](O)[C@H]6O)[C@H](O)[C@H]5O)[C@H]4O[C@@H]4O[C@H](CO)[C@@H](O)[C@H](O)[C@H]4O)CC[C@]3(C)[C@@H]12 in the records?
Response given: Toxic

New cases:
Challenge: Which value of Activity has been reported for O=c1cc(-c2ccc(O)cc2)oc2cc(O)cc(O)c12 in the records?
Response given: Toxic

FYI, the data here is from ChEMBL document CHEMBL1777755.
